Numbers sourced from patent EP4818194A1.

Recorded measurements of Vd, one per entry
Assay: Pharmacokinetic characteristics in rats after intravenous administration (plasma, LC-MS/MS)
Type: in vivo
Conditions: rat, SD rats, tail vein, 10 mg/kg, read-out: Vss
Where no end group is shown, it is not given here.
Express your answer in L/kg, writing the number without its unit.

Task: Give its Vd value. Item: YGRKKRRERRRKKDRNKLRRQHSY [Example 17]
Output: 23.1

Task: Again, but for YGRKKRRQRRRKKNRNKLRRQHSY-NH2 [Example 6]
Output: 2.53

Task: Again, but for Ac-YGRKKRRQRRRKKNRNKLRRQHSY-NH2 [Example 7]
Output: 3.58

Task: Again, but for YGRKKRRQRRRKKNRNKLRRQHSY [Example 1, reference compound]
Output: 1.29

----------
Assay: Pharmacokinetic characteristics in rats after intravenous administration (plasma, LC-MS/MS)
Type: in vivo
Conditions: rat, SD rats, tail vein, 10 mg/kg
Where no end group is shown, it is not given here.
endpoint_label: half-life (h)
Express your answer in h, writing the number without its unit.

Below are worked cases with known answers.
INSERT INTO results (substance, endpoint_label, unit_spec, measurement) VALUES
  ('YGRKKRRQRRRKKNRNKLRRQHSY [Example 1, reference compound]', 'half-life', 'h', 0.76),
  ('YGRKKRRQRRRKKNRNKLRRQHSY-NH2 [Example 6]', 'half-life', 'h', 1.23),
  ('Ac-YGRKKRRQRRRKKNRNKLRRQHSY-NH2 [Example 7]', 'half-life', 'h', 1.51);

# ---- query substance ----
Task: Give its half-life value. Item: YGRKKRRERRRKKDRNKLRRQHSY [Example 17]
Output: 1.66

----------
Recorded measurements of MRT, one per entry
Experiment: Pharmacokinetic characteristics in rats after intravenous administration (plasma, LC-MS/MS)
Type: in vivo
Details: rat, SD rats, tail vein, 10 mg/kg
Where no end group is shown, it is not given here.
Express your answer in h, writing the number without its unit.

Below are worked cases with known answers.
INSERT INTO results (substance, measurement) VALUES
  ('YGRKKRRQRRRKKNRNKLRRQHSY-NH2 [Example 6]', 1.65),
  ('YGRKKRRERRRKKDRNKLRRQHSY [Example 17]', 2.29),
  ('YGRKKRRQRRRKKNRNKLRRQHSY [Example 1, reference compound]', 0.87);

# ---- query substance ----
Task: Give its MRT value. Item: Ac-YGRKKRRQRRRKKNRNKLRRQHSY-NH2 [Example 7]
Output: 1.93
